Molecular target: Fes (UniProt P07332)
Sequence (P07332 whole entry, looked up): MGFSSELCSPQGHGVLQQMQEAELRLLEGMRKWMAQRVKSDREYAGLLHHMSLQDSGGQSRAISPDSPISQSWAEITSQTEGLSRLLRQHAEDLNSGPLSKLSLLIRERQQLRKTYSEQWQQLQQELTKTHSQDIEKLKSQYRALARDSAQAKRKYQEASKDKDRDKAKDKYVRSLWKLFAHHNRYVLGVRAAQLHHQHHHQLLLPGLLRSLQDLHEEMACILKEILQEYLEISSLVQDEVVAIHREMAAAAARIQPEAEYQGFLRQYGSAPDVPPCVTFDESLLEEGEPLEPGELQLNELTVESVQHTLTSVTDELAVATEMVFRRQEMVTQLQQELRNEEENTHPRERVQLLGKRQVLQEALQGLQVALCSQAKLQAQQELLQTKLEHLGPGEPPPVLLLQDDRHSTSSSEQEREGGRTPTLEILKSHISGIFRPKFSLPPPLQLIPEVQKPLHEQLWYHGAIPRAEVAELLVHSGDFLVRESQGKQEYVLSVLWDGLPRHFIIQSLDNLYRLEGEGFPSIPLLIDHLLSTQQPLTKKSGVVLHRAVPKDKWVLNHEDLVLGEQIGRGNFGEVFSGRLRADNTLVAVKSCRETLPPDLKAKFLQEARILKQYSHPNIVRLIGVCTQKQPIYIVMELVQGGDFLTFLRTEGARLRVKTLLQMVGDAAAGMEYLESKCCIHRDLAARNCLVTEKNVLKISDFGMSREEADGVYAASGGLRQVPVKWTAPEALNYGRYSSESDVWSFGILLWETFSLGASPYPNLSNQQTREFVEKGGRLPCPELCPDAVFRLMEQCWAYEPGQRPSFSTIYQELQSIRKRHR
Assay: phosphorylation enrichment, bacterial display (enrichment ratio); higher = better substrate or ligand; peptides without Tyr show the background;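 further: 11-residue human phosphosite peptides and single-mutation variants displayed on the E. coli surface, counted by deep sequencing, each peptide's frequency after selection divided by its frequency in the unselected input library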;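 further: frequency after pTyr selection over input frequency; kinase dosed for 20-30% of maximal phosphorylation in three min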
measured.endpoint: phosphorylation enrichment
One number for each entry.

LERYIYNPEEF [HLA-DPB1_Y59_R61P]	1.74
YAKSVYWDNTL [NUP107_Y296_E298D]	0.839
HSGVSYYINLC [IGF2R_Y2024_N2020S]	1.93
LLLLFCVVRFC [MPZ_Y177_Y177C_YF]	1.12
LHRAHYDLHHT [AHSG_Y314_R317H]	1.01
SSQHRYSTPHA [RAF1_Y232]	0.53
NWGSPYKSDGC [ZNF347_Y261_N264D]	0.864
LTERGYSFVTT [ACTA1_Y200]	1.41

Field: phosphorylation enrichment. Fill in for each record below.
1. PSRKDYETYQP [CTNND2_Y1154]
2. GRLGEYDIDEV [SMS_Y134_V132G]

OUT:
1.02
1.45

Field: phosphorylation enrichment. Fill in for each record below.
1. SSDPDYRAAVD [GLB1_Y154_L155R]
2. HRGCLYLAIEF [TEK_Y899_Y897C_YF]
3. RNIQQHNSFVS [PRKAR1A_Y373_Y373H]

OUT:
0.988
1.37
0.451

###

Kindly state phosphorylation enrichment for each of the entries shown.
Target: Fyn (UniProt P06241)
Sequence (P06241 whole entry, looked up): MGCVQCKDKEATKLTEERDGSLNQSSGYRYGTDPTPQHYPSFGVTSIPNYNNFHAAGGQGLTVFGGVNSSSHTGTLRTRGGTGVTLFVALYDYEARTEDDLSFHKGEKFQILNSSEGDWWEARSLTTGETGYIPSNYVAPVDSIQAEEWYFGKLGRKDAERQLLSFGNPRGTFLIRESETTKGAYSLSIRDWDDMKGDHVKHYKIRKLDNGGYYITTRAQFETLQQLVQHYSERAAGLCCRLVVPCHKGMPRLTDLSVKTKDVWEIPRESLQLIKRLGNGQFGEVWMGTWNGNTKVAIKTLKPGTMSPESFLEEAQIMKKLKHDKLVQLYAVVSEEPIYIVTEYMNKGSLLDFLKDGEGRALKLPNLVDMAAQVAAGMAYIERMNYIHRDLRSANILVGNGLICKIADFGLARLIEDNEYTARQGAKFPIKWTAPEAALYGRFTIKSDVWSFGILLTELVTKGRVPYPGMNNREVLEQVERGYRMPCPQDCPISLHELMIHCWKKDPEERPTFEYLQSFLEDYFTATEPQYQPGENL
Experiment: phosphorylation enrichment, bacterial display (enrichment ratio); higher = better substrate or ligand; peptides without Tyr show the background
Give bare numbers.

Example entries and their recorded answers appear below.
QLLIEYPPEEV [ZZZ3_Y670_K669E]	0.618
HGEAFYSEVKA [PAK5_Y182_P187A_YF]	3.92
RESFKYLPSSL [CXXC1_Y218_F219L_YF]	0.469
ELRGTYTSLQQ [KIF3C_Y574]	0.978
CTAIHYNFMCN [TP53_Y234_T231A_YF]	0.442
FYRNVYHLASV [RBL1_Y796_K794N]	1.93
RELGKYGLQAY [ALDH2_Y497_E496K]	0.464
ERMKVYVPIGF [EPHX1_Y393_T396I]	1.13
KYVVVYFRETD [IL17RB_Y447_I451T]	0.43
LENQTYFKSFE [AKAP9_Y2482]	1.08

Field: phosphorylation enrichment. Fill in for each record below.
1. PATINYLFEKG [NDUFS8_Y84_P85L]
2. DFFDLYGGEKF [PTPN11_Y66_YF]
3. RAILLYEFVGK [NATD1_Y45_V42I_YF]

OUT:
[0.357, 2.12, 12.1]

###

Target: Jak2 (UniProt O60674)
Sequence (O60674 whole entry, looked up): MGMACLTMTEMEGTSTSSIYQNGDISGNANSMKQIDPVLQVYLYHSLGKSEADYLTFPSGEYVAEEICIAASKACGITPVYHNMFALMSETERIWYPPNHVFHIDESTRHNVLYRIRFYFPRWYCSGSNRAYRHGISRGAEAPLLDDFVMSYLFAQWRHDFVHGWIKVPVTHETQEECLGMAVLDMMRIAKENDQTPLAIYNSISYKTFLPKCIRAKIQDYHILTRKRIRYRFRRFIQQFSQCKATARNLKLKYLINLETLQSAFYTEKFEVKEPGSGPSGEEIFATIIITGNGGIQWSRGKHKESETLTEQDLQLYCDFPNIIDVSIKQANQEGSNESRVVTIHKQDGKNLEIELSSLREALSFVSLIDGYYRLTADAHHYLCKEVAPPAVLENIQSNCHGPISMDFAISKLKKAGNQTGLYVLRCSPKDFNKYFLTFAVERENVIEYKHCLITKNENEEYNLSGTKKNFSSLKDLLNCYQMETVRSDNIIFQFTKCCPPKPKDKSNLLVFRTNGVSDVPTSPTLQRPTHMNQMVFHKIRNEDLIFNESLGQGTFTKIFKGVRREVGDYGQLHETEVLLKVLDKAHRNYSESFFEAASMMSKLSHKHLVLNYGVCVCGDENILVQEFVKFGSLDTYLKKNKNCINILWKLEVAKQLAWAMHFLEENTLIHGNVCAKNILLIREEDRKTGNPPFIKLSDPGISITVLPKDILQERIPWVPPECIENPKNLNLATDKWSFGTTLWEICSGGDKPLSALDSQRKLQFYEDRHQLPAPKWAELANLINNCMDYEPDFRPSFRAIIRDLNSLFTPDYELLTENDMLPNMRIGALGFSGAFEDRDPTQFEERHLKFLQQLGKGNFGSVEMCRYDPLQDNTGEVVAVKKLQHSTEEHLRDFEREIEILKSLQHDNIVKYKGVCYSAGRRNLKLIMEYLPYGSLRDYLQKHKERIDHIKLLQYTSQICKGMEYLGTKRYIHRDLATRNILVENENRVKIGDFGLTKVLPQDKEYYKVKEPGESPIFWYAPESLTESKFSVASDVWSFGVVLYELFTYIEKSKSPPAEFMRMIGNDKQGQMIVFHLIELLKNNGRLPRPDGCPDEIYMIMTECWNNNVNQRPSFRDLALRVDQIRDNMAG
Experiment: phosphorylation enrichment, bacterial display (enrichment ratio); higher = better substrate or ligand; peptides without Tyr show the background
Class Yes: phosphorylation enrichment at least 1. Class No: phosphorylation enrichment below 1.

Solved entries (count: 3):
AESPEHVHMYT [FAM111A_Y511_Y511H]	No
EQKKFYNAMKN [SCN5A_Y1495_K1500N_YF]	No
LHAAAYQNALA [UQCRC2_Y182_R183Q]	No

IN: Dear colleague, could you confirm whether GDYLSYREFHL [ERBIN_Y1107_S1112L] has phosphorylation enrichment at or above 1?
OUT: Yes

IN: Dear colleague, could you confirm whether RVEDACILTCN [CCT6A_Y229_Y229C] has phosphorylation enrichment at or above 1?
OUT: Yes

###

Target: Fes (UniProt P07332)
Assay: phosphorylation enrichment, bacterial display (enrichment ratio); higher = better substrate or ligand; peptides without Tyr show the background
Class MET: phosphorylation enrichment at least 1. Class NOT MET: phosphorylation enrichment below 1.

AESPEHVHMYT [FAM111A_Y511_Y511H]	NOT MET

Attention now turns to another entry.
IN: Dear colleague, could you confirm whether VTHKEYFIFLE [CAMKV_Y95_R92H] has phosphorylation enrichment at or above 1?
OUT: MET

###

System: c-Src
Assay: phosphorylation enrichment, bacterial display (enrichment ratio); higher = better substrate or ligand; peptides without Tyr show the background
We'd kindly ask you to apply these phosphorylation enrichment classes: low-valued (below 0.4), mid-valued (0.4 to below 0.6), high-valued (0.6 or more)

Solved entries (count: 8):
RSRSPYSSRHS [CDK13_Y415]	mid-valued
AIGCEYSEINI [SIGLEC12_Y588_Y586C]	high-valued
PQIVNYSPDCI [LDHB_Y128_K127N]	low-valued
NIQKKYFRAIL [CHD7_Y1217_YF]	low-valued
VTAALYGCLYE [BTD_Y536_R538C]	high-valued
CGTPEYRAPEI [PRKACA_Y205_L206R]	mid-valued
EAESWYQTKYE [KRT75_Y342]	high-valued
MCITQYKRESQ [PRNP_Y218_E219K]	mid-valued

IN: Kindly identify the class of AAVDNYCRHNY [HLA-DRB1_Y107_T106N] .
OUT: low-valued

IN: Kindly identify the class of LGRTRYQHVTG [MIPEP_Y510] .
OUT: mid-valued

IN: Kindly identify the class of DWRQEYVLNEP [TGM1_Y267_S272P] .
OUT: high-valued

IN: Kindly identify the class of NLFIEYPTGSG [IRF2BPL_Y423_K418N] .
OUT: mid-valued

IN: Kindly identify the class of CPTIHYNYMCN [TP53_Y234_T230P] .
OUT: mid-valued

###

Target: Fes (UniProt P07332)
Assay: phosphorylation enrichment, bacterial display (enrichment ratio); higher = better substrate or ligand; peptides without Tyr show the background
measured.endpoint: phosphorylation enrichment

Example entries and their recorded answers appear below.
GRDVIYKGFED [NFU1_Y194_G190R]	1
SIYKDYYRYNF [PLA2G2D_Y85]	0.918
QRASDYYSQQM [GBP6_Y333_A331S]	0.754
IIAVHYVLEES [RYR2_Y4559]	2.04

Field: phosphorylation enrichment. Fill in for each record below.
1. YDCGMYSHLQG [LGR4_Y848]
2. TQFWRYFAGNL [SLC25A5_Y112_L111R]
3. SWKRRYFLLWA [APBB1IP_Y331_R335W]
4. IGEGTSGVVYK [CDK2_Y15_Y15S]
5. DPGVSYHTREE [PDHA1_Y301_R302H]
6. STTSDYQWDVS [MTDH_Y364]
7. DNEAIYDICRC [TUBA4A_Y210_R215C]

OUT:
[1.21, 1.05, 0.591, 0.616, 0.764, 1.22, 1.28]

Field: phosphorylation enrichment. Fill in for each record below.
1. TVSTGYTQPQP [SARG_Y259_R258G]
2. IGVGSYSVCKR [RPS6KA3_Y433]
3. FSMGCYEIFLG [HMGCL_Y198_S201Y_YF]
4. PGIRMYQVQYN [LRFN1_Y454]
5. PPPELYFVKVD [TERT_Y707]
6. YKEQGYHRLPS [RIN1_Y681_P686S]
7. CTTIHYIFMCN [TP53_Y234_N235I_YF]

OUT:
1. 0.64
2. 0.878
3. 1.8
4. 1.39
5. 1.81
6. 0.508
7. 1.05

Field: phosphorylation enrichment. Fill in for each record below.
1. LGKLIYPVGFW [NTHL1_Y177]
2. DEEPPDRGPFC [SASH1_Y551_Y551D]
3. IRTIDYRYTVC [IDS_Y497_W502C]

OUT:
1.87
1.14
1.02

Field: phosphorylation enrichment. Fill in for each record below.
1. VQDPAYLRDID [OPRK1_Y369]
2. KGTAGYTTVAV [RET_Y752_R749T]
3. QRRNVYYYSYL [PTEN_Y176_Y174N]
4. RFVSRYIFNRE [HLA-DQB1_Y62_T60S_YF]
5. NIQKKYFRAIL [CHD7_Y1217_YF]

OUT:
1. 1.13
2. 0.493
3. 1.41
4. 1.46
5. 0.655

Field: phosphorylation enrichment. Fill in for each record below.
1. CTTIHYNFICN [TP53_Y234_M237I_YF]
2. ADKAAYLQSMN [MYH2_Y389_L393M]

OUT:
[1.23, 0.761]

Field: phosphorylation enrichment. Fill in for each record below.
1. SHLSSYTTHPQ [NIPBL_Y195_P192L]
2. SARVRYLMAEK [LDHB_Y173_F171V]
3. DSSIRYLQEIY [FGG_Y135]
4. ISRLKYPVSQQ [BTK_Y375]

OUT:
1: 0.726; 2: 0.756; 3: 1.02; 4: 0.59

Field: phosphorylation enrichment. Fill in for each record below.
1. RAILLYEFVGK [NATD1_Y45_V42I_YF]
2. ADRNHYRRYRR [YBX1_Y145_P149R]
3. SNMPSYSGHFT [GRIN2A_Y1224_T1223S]
4. GGRIDYIAGLD [APRT_Y60]
5. RPGSGYTNIMQ [PKLR_Y564_R569Q]

OUT:
[7.5, 0.861, 0.599, 0.829, 0.834]

Field: phosphorylation enrichment. Fill in for each record below.
1. TYEPNYGTVKQ [RAPGEF6_Y1447]
2. QEITTYRRLLE [KRT14_Y415_A413T]
3. YSMGCYEFSLG [HMGCL_Y198_I200F]
4. EIELAYRRRPP [GRIN2B_Y1109]

OUT:
1: 0.667; 2: 1.11; 3: 1.39; 4: 0.587
